- TEST DESCRIPTION: small molecules captured by biotinylated probe aFST – biochemical, small-molecule microarray, fluorescence 635/667, stem cell growth factor project, primary screen (AID 1086);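 also: score merges 667 nm fluorescence with signal-to-noise of each printed compound spot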
- REPORTED CONDITIONS: higher = more signal
Classify as follows. Reported composite z-score greater than or equal to 0.6: 1.0. Reported composite z-score below: 0.0.

Some entries whose results are on file:
>>> discrete_label("COCCCNC(=O)[C@@H]1c2ccccc2C(=O)N(Cc2ccccc2)[C@H]1c1ccc(CO)cc1")
0.0
>>> discrete_label("COC(=O)[C@@]1(Cc2ccccc2)[C@H]2c3cc(C(=O)N4CCCC4)n(Cc4c(CO)[nH]cc(C)c4=O)c3C[C@H]2CN1C(=O)c1ccccc1")
1.0
>>> discrete_label("COCCOC(=O)N1C(=O)[C@@]2(c3ccccc31)[C@H](C(=O)N1CCCCCCC1)[C@H]1C(=O)O[C@H](c3ccccc3)[C@H](c3ccccc3)N1[C@@H]2c1ccc(OCCO)cc1")
1.0
>>> discrete_label("C=CCN1C(=O)[C@]2(O[C@H](CCO)[C@@H]([Si](C)(C)c3ccc(OC)cc3)[C@@H]2C)c2cc(N(C=O)c3ccccc3)ccc21")
0.0

Ask: I'd appreciate it if you could say whether CC(C)NC(=O)[C@@H]1c2ccccc2C(=O)N(C(C)C)[C@H]1c1ccc(CO)cc1 has composite z-score at least equal to 0.6.
Result: 0.0

Ask: And CC(C)(C)OC(=O)CC[C@]1(C(=O)NCCN2CCOCC2)COC(c2ccc(OCCCO)cc2)=N1 ?
Result: 0.0

----------
- TEST DESCRIPTION: compounds binding Alexa647 anti-His antibody – biochemical, small-molecule microarray, 635 nm fluorescence, artefact control for SMM control protein annotation, primary screen (AID 1128);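 also: score merges feature fluorescence with signal-to-noise for each printed compound spot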
- REPORTED CONDITIONS: higher = more signal
Entries annotated with measured composite z-score

Known composite z-score results, listed for orientation:
>>> measurement("C=CCNC(=O)[C@@H]1[C@H]2C(=O)O[C@H](c3ccccc3)[C@H](c3ccccc3)N2[C@H](c2ccc(OCCO)cc2)[C@@]12C(=O)N(C(=O)OCCOC)c1ccc(C#CCNC(N)=O)cc12")
1.26
>>> measurement("O=c1cccc(-c2ccccc2Cl)o1")
0.0166
>>> measurement("O=C1OCCC=C[C@H]2OC34C=CCN(c5ccc(Cl)cc5)C(=O)[C@H]3N(CCCO)C(=O)[C@@H]4C12 (some centres not stated)")
-0.598

Ask: Return reported composite z-score; argument: COCCOC(=O)N1C(=O)[C@@]2(c3cc(C#Cc4ccc(OC)cc4)ccc31)[C@H](c1ccc(O)cc1)N1[C@H](c3ccccc3)[C@H](c3ccccc3)OC(=O)[C@H]1[C@@H]2C(=O)Nc1nc2ccccc2s1
Result: 0.513

Ask: And [N-]=[N+]=Nc1ccccc1C[C@]1(C(=O)NCc2ccccc2)N=C(c2ccc(OCCCO)cc2)O[C@H]1c1ccccc1N=[N+]=[N-] ?
Result: 1.88

Ask: And CC(C)(C)OC(=O)CC[C@@]1(C(=O)N2CCCCC2)N=C(c2ccc(OCCCO)cc2)O[C@@H]1c1ccccc1 ?
Result: 1.87

Ask: And Cc1ccc(/C=C/C=O)cc1 ?
Result: -0.0082

----------
Entries annotated with measured z-score
- TEST DESCRIPTION: growth of efflux-deficient E. coli DRC39 – strain DRC39, OD650, 48 h, E. coli filamentation inducers, primary screen (AID 1179);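 also: screen aims at cell division blockers that make cells filament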
- REPORTED CONDITIONS: E. coli DRC39 delta-acrAB growth, higher = more signal, called active from +8 up or from −8 down
Just the number, please, no unit after it.

Known z-score results, listed for orientation:
>>> measurement("C[C@H]1C2[C@H](Cc3ccccc3)NC(=O)[C@]23C(=O)NCC(=O)N2CCC[C@H]2C(=O)NC/C=C/CCC/C=C/C3[C@@H]2O[C@]12C (stereo partly specified)")
0.601
>>> measurement("CCOC(=O)C[C@H]1[C@H](OC(=O)c2cc3ccccc3oc2=O)[C@@H](NC(=O)CC(C)C)c2cc(OCCCO)ccc2N1C(=O)c1ccccc1")
1.08
>>> measurement("[N-]=[N+]=Nc1ccccc1C[C@@]1(C(=O)N2CCCCC2)N=C(c2ccc(OCCCO)cc2)O[C@@H]1c1ccccc1N=[N+]=[N-]")
0.208

Ask: Return reported z-score; argument: COc1ccc(CCNC(=O)[C@@]2(c3ccc([N+](=O)[O-])cc3)CC(=O)N(CC34CC5CC(CC(C5)C3)C4)[C@@H]2c2ccc(CO)cc2I)cc1
Result: 0.223

Ask: And CC(C)(C)OC(=O)CC[C@@]1(C(=O)N2CCCCC2)N=C(c2ccc(OCCCO)cc2)O[C@@H]1c1ccccc1 ?
Result: -1.53

Ask: And C=CCOC(=O)[C@H]1[C@@H]2C(=O)O[C@@H](c3ccccc3)[C@@H](c3ccccc3)N2[C@@H](c2ccc(OCCOC(=O)[C@@H]3C[C@@H]4C(=O)N5CCC[C@H]5C(=O)N4[C@@H]3c3cccc(OCCO)c3)cc2)[C@]12C(=O)Nc1ccc(I)cc12 ?
Result: -0.0471
